# protocol-description: Cytotoxicity against mouse macrophages assessed as cell viability at 10 uM after 18 hrs by MTT assay
# Type: cell-based, Macrophage
# measurement-context: read-out: Activity
The entries below are paired with their reported viability at 18 h, 10 µM.
Record the value in %, omitting the unit from your answer.

FC(F)(F)c1cc([C@@H]2OC(c3ccc(Cl)cc3Cl)N3CCCC[C@H]23)c2cccc(C(F)(F)F)c2n1 (mixture of isomers) = 100
O=[N+]([O-])c1ccc(C2O[C@@H](c3cc(C(F)(F)F)nc4c(C(F)(F)F)cccc34)[C@H]3CCCCN23)s1 (mixture of isomers) = 100
FC(F)(F)c1cc([C@@H]2OC(c3cccc(Cl)c3Cl)N3CCCC[C@H]23)c2cccc(C(F)(F)F)c2n1 (mixture of isomers) = 100
FC(F)(F)c1cc([C@@H]2OC(c3ccc(Cl)c(Cl)c3)N3CCCC[C@H]23)c2cccc(C(F)(F)F)c2n1 (mixture of isomers) = 100
FC(F)(F)c1cc([C@@H]2OC(c3c(Cl)cccc3Cl)N3CCCC[C@H]23)c2cccc(C(F)(F)F)c2n1 (mixture of isomers) = 92
FC(F)(F)c1cc([C@@H]2OC(c3ncc[nH]3)N3CCCC[C@H]23)c2cccc(C(F)(F)F)c2n1 (mixture of isomers) = 100
COc1cccc(C2O[C@@H](c3cc(C(F)(F)F)nc4c(C(F)(F)F)cccc34)[C@H]3CCCCN23)c1OC (mixture of isomers) = 100
OC(c1cc(C(F)(F)F)nc2c(C(F)(F)F)cccc12)C1CCCCN1 (stereo unspecified) = 81

// viability at 18 h, 10 µM lookup, compound = COc1cc(C2O[C@@H](c3cc(C(F)(F)F)nc4c(C(F)(F)F)cccc34)[C@H]3CCCCN23)cc(OC)c1OC (mixture of isomers) , result: 100

// viability at 18 h, 10 µM lookup, compound = CCOc1cccc(C2O[C@@H](c3cc(C(F)(F)F)nc4c(C(F)(F)F)cccc34)[C@H]3CCCCN23)c1 (mixture of isomers) , result: 100

// viability at 18 h, 10 µM lookup, compound = O=[N+]([O-])c1ccc(C2O[C@@H](c3cc(C(F)(F)F)nc4c(C(F)(F)F)cccc34)[C@H]3CCCCN23)o1 (mixture of isomers) , result: 100

----------
The entries below are paired with their reported viability at 18 h, 100 µM.
# protocol-description: Cytotoxicity against mouse macrophages assessed as cell viability at 100 uM after 18 hrs by MTT assay
# Format: cell-based, Macrophage
# measurement-context: read-out: Activity
Record the value in %, omitting the unit from your answer.

// viability at 18 h, 100 µM lookup, compound = CCOc1cccc(C2O[C@@H](c3cc(C(F)(F)F)nc4c(C(F)(F)F)cccc34)[C@H]3CCCCN23)c1 (mixture of isomers) , result: 95

// viability at 18 h, 100 µM lookup, compound = COc1cccc(C2O[C@@H](c3cc(C(F)(F)F)nc4c(C(F)(F)F)cccc34)[C@H]3CCCCN23)c1OC (mixture of isomers) , result: 100

----------
# protocol-description: Cytotoxicity against mouse macrophages assessed as cell viability at 100 uM after 18 hrs by MTT assay
# Format: cell-based, Macrophage
# measurement-context: read-out: Activity
quantity-kind: viability at 18 h, 100 µM (%)
Record the value in %, omitting the unit from your answer.

COc1cc(C2O[C@@H](c3cc(C(F)(F)F)nc4c(C(F)(F)F)cccc34)[C@H]3CCCCN23)cc(OC)c1OC (mixture of isomers) = 97
FC(F)(F)c1cc([C@@H]2OC(c3ccc(Cl)cc3Cl)N3CCCC[C@H]23)c2cccc(C(F)(F)F)c2n1 (mixture of isomers) = 98
OC(c1cc(C(F)(F)F)nc2c(C(F)(F)F)cccc12)C1CCCCN1 (stereo not given) [MEFLOQUINE] = 70
FC(F)(F)c1cc([C@@H]2OC(c3ncc[nH]3)N3CCCC[C@H]23)c2cccc(C(F)(F)F)c2n1 (mixture of isomers) = 100

Moving on to another molecule below.
// viability at 18 h, 100 µM lookup, molecule = FC(F)(F)c1cc([C@@H]2OC(c3c(Cl)cccc3Cl)N3CCCC[C@H]23)c2cccc(C(F)(F)F)c2n1 (mixture of isomers) , result: 59
